target: T1, human CTLA-4-Fc (Chimerigen) (human, UniProt P16410 36-161; P01857 99-330 = IgG part, limits assumed); test: SPR-Affinity towards hCTLA-4-Fc
T1 construct: extracellular domain;domain: Fc portion; Bought protein; also called hCTLA-4-Fc; huCTLA-4-Ig
T1 sequence (P16410 other isoform, or with tags, fused parts or gaps mutant limits assumed): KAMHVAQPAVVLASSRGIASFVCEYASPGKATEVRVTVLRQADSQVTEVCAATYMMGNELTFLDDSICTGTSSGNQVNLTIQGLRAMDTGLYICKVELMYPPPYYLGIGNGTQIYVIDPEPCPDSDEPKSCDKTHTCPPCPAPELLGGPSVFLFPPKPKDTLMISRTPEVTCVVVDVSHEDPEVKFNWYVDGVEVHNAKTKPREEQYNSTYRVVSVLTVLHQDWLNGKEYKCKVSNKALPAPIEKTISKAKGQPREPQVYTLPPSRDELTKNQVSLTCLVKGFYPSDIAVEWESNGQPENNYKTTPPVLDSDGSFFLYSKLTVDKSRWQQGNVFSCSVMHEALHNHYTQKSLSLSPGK
parameter.measured: pKd
# pKd = -log10(concentration in molar units)

S140.4-O10-ABD (fusion with the albumin binding domain of streptococcal protein G) (designed binder, Original linker of protein G between mutein and ABD; also called Onc I-004) QDSTSDLIPAPPLSKVPLQQNFQDNQFHGKWYVVGLAGNRILRDDQHPMNMYATIYELKEDKSYNVTSVISSHKKCEYTIATFVPGSQPGEFTLGNIKSYGDKTSYLVRVVSTDYNQYAVVFFKLAEDNAEFFAITIYGRTKELASELKENFIRFSKSLGLPENHIVFPVPIDQCIDGSGGAVDANSLAEAKVLANRELDKYGVSDYYKNLINNAKTVEGVKALIDEILAALPSAWSHPQFEK	8.05

Quickly give me recorded pKd for S140.4-O10-CH4 (fusion with the CH4 domain of the human IgE-Fc portion) (designed binder, The molecule is a homodimer formed through the CH4 domain (the patent calls it the CH4-dimer). One copy of the chain is given., Fused for dimerization; CH4 domain between the mutein and the C-terminal Strep tag; also called CH4-dimer) QDSTSDLIPAPPLSKVPLQQNFQDNQFHGKWYVVGLAGNRILRDDQHPMNMYATIYELKEDKSYNVTSVISSHKKCEYTIATFVPGSQPGEFTLGNIKSYGDKTSYLVRVVSTDYNQYAVVFFKLAEDNAEFFAITIYGRTKELASELKENFIRFSKSLGLPENHIVFPVPIDQCIDGSTTKTSGPRAAPEVYAFATPEWPGSRDKRTLACLIQNFMPEDISVQWLHNEVQLPDARHSTTQPRKTKGSGFFVFSRLEVTRAEWEQKDEFICRAVHEAASPSQTVQRAVSVNPESSRSGGCSAWSHPQFEK
9.10

Each recorded value in this set is attributed to patent US20090042785A1.
